Value source: patent US20240116985A1

Biological target: beta-catenin (full-length, Uniprot ID P35222) (Homo sapiens (Human)) (UniProt P35222)
Sequence (P35222 whole entry): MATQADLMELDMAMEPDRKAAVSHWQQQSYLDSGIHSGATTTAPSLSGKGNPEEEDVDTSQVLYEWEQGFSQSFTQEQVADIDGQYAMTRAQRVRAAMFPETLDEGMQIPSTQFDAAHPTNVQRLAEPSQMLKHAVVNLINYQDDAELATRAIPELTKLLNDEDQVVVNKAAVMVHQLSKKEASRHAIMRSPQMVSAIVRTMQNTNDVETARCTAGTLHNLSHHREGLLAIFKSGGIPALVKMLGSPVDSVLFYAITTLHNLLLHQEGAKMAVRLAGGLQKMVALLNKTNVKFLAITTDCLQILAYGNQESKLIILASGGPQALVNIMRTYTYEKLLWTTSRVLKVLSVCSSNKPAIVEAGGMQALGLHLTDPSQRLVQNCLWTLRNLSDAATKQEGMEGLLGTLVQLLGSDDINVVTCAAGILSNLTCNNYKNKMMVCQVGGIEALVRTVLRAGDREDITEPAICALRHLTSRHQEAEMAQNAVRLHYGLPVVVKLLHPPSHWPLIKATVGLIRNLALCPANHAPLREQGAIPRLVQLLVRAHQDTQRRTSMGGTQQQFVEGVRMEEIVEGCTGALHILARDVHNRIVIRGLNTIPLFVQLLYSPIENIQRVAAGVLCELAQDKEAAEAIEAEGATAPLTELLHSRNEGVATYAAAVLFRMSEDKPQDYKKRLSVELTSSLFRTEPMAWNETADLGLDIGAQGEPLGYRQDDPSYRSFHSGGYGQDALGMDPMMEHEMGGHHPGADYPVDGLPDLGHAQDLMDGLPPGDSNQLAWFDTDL
Experiment: fluorescence polarization competition; full-length beta-catenin; competitor 5FAM-TCF4(10-53) probe
Starred links: 1 amine or outer side, 2 acyl side, 3 side chain; linkers in the order of their positions; H or OH if unused. Positions of bridges follow the written chain, without caps; N, C: chain ends. Non-standard residues stand in square brackets, D forms with d. Primed or numbered codes have the meaning given here. B5(4) = 2,2-bis(4-pentenyl)glycine = 2-amino-2-(pent-4-en-1-yl)hept-6-enoic acid (stitching residue), C=CCCCC(CCCC=C)(N[*:1])C(=O)[*:2]; 2Nal = N[C@@H](Cc1ccc2ccccc2c1)C(=O)O; Bta = N[C@@H](Cc1csc2ccccc12)C(=O)O; αAllylPro = C=CC[C@@]1(C(=O)O)CCCN1; S8 = C=CCCCCCC[C@](C)(N)C(=O)O
measurement name: IC50 (µM)
Reply with just the number (in µM).

Sample Ac-[αAllylPro]DA[B5(4)]D[2Nal]AAFQ[S8]F[Bta]Q-NH2 (staple 1-4, 4-11) [I-295] — what was its IC50? 5
